FYI, the data here is from ChEMBL document CHEMBL1156271.

Could you please report measured IC50 for the items listed next?
biological target: UniProt:P25774; test: Inhibition of human cathepsin S
Sequence (P25774 whole entry): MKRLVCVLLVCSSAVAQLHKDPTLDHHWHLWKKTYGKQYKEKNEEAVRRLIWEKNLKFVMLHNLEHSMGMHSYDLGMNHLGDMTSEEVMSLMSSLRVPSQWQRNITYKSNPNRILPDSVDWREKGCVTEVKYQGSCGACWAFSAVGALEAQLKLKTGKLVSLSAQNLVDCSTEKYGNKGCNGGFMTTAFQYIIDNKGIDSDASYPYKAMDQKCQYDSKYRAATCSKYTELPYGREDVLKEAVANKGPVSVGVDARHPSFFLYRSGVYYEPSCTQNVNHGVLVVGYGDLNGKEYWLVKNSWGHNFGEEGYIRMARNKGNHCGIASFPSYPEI
Give bare numbers, in nM.

> print(dat)
                                   compound  property  unit.of.measure  reported
1  CS(=O)(=O)N1CCc2c(c(-c3ccc(C(F)(F)F)c(SCCN4CCC5CCCCC5C4)c3)nn2CCCN2CCC(N3CCCC3=O)CC2)C1 (configuration not stated)      IC50               nM        55

Let's switch to this compound now.
Tested on UniProt:P25774: CS(=O)(=O)N1CCc2c(c(-c3ccc(Cl)c(SCCO)c3)nn2CCCN2CCOCC2)C1 . Observed IC50: 960
